All values here come from the supplement of paper PMC12764529.

Protocol Description: folding stability dG unfold from trypsin proteolysis; higher = more stable
Decide using folding stability dG unfold: a value greater than or equal to 0.4 kcal/mol is Criterion met, a smaller one is Criterion not met.

>  <Input Sequence>
SASSVEKEFDSIEDALKAIKEALAKKVPVKMKMDPETVKELKKAGFPDIDVTKEKLPNGNEYYLLELLFSAG [r14_127_JUSTAS]

>  <Answer Label>
Criterion met

$$$$
>  <Input Sequence>
SAGSSPEEIAERLREEAERTEKLPDGSEVRVSVSVDVEVLPNGTVRLTIPRSYPETGVVTTETVTIPVASAG [r5_397_JUSTAS]

>  <Answer Label>
Criterion not met

$$$$
>  <Input Sequence>
SAGGSAGGSAGKKRKIEINIIVPPEGAKQMAKMIKDELAQRNRDVDIEIKIIPVPPGQPLSAGGSAGGSAGG [r11_973_TrROS]

>  <Answer Label>
Criterion met

$$$$
>  <Input Sequence>
SAGGSAGGSASPVPVVEVEITPVKLPGDETAAKITVLLEGDGEPVVVWFDSKDVEKVIEEVLASAGGSAGGS [r20_238_JUSTAS]

>  <Answer Label>
Criterion not met

$$$$
>  <Input Sequence>
SAGGSAGGSAGGKAKIVDVKIEKEGNTVTIEVKIEVDGKLIATAKVRFTGPDGKLEIEIESAGGSAGGSAGG [r7_133_TrROS_Hall]

>  <Answer Label>
Criterion met

$$$$
>  <Input Sequence>
SAGGTIYIFIPGLTAEEILKFIAEEFPGHENVTIFWPKGYYVKITVDNGNIKIDKVQPMRPMPPGDPSAGGS [r8_225_TrROS]

>  <Answer Label>
Criterion met

$$$$
>  <Input Sequence>
SAGDGDKMRGEHEREDPNGKKREVTHEMKVQPPPVPKPKIELPADDIDEIDPDNGTLRNPGNGKPFPIGSAG [r5_807_TrROS]

>  <Answer Label>
Criterion not met

$$$$
>  <Input Sequence>
SAGGSAGGSASSMVTVTVSVSPDEGDEEVAKEIAKELGRPDAKVTKITYDPATGTLTITLVDSAGGSAGGSA [r18_481_JUSTAS]

>  <Answer Label>
Criterion met

$$$$
>  <Input Sequence>
KTIEIMIPMEQMRNNKPIPADQFLKELAQEFGGPNVKPKVEPMPDNMMKATITLPNGRKIEITDPGAIKIKS [r1_168_TrROS]

>  <Answer Label>
Criterion not met

$$$$
>  <Input Sequence>
SAGGSAGGGIEEELRRVLPEDATVTIEEVPERPLLVVTVTFPERAETRTFTFSPESPEKLIEALSAGGSAGG [r6_612_JUSTAS]

>  <Answer Label>
Criterion met

$$$$
>  <Input Sequence>
SAGGSAGGSSPVRMVATIPLPDGTTITVEAEIVRLPDGTILIKTPSGEIIEVPPDVPVEFFPESAGGSAGGS [r20_227_JUSTAS]

>  <Answer Label>
Criterion met

$$$$
>  <Input Sequence>
SAGGSAEVYKVKIKIERVLPNGEKVEEEITIEVEGMSEEELLALARELAAEPGVRIKEIEIEKLPPSAGGSA [r15_550_TrROS_Hall]

>  <Answer Label>
Criterion met

$$$$
>  <Input Sequence>
SAGGSAGGSDPEFELVRVEVFPFPTATLVRAVARFPPTDEYVEVELVHFPVPDRVLLRVRLLPSAGGSAGGS [r12_14_TrMRF]

>  <Answer Label>
Criterion met

$$$$
